Measured values drawn from patent US6677316B2 for this set.

measured_target: human adenosine A3 receptor (Homo sapiens)
Construct: expressed in transfected cells; host or cells: Chinese hamster ovary (CHO) cells with CRE/SPAP/HYG reporter elements
Sequence (P0DMS8 1-318): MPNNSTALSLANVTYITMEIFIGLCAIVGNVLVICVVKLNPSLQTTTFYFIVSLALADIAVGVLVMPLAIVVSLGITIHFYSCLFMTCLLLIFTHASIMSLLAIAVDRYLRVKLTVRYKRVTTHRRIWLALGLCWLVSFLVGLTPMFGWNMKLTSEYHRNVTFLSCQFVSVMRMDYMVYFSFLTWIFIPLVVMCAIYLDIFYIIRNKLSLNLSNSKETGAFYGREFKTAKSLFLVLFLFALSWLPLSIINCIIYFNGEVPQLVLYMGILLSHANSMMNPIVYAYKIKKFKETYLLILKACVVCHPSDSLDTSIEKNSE
test_details: Reporter gene assay (CRE/SPAP) in CHO cells, agonist potency relative to NECA, adenosine A3 receptor
Assay type: cell-based
Design: key: equipotent concentration ratio, NECA = 1
assay_conditions: ECR = equipotent concentration ratio relative to NECA = 1, inhibition of forskolin-stimulated SPAP production
measured_endpoint: Adenosine A3 receptor ECR*

Examples with their reported Adenosine A3 receptor ECR* follow.
- smiles_structure: "CC(C)(C)c1noc([C@H]2O[C@@H](n3cnc4c(NCC5CC5)ncnc43)[C@H](O)[C@@H]2O)n1"
  reading: 165.54
- smiles_structure: "CC(C)c1noc([C@H]2O[C@@H](n3cnc4c(Nc5ccc(F)c(F)c5)ncnc43)[C@H](O)[C@@H]2O)n1"
  reading: 717.99
- smiles_structure: "CCOC(=O)N1CCC(Nc2ncnc3c2ncn3[C@@H]2O[C@H](c3nnc(C(C)(C)C)o3)[C@@H](O)[C@H]2O)CC1"
  reading: 152
- smiles_structure: "CC(C)(C)c1nnc([C@H]2O[C@@H](n3cnc4c(NC5CCOCC5)ncnc43)[C@H](O)[C@@H]2O)[nH]1"
  reading: 228
- smiles_structure: "CC(C)(C)c1nnc([C@H]2O[C@@H](n3cnc4c(Nc5ccc(F)cc5Cl)ncnc43)[C@H](O)[C@@H]2O)o1"
  reading: 955

P: CCOC(=O)N1CCC(Nc2ncnc3c2ncn3[C@@H]2O[C@H](c3nc(C)no3)[C@@H](O)[C@H]2O)CC1
Q: CCc1cnc([C@H]2O[C@@H](n3cnc4c(NC5CCOCC5)ncnc43)[C@H](O)[C@@H]2O)o1
Q: Thinking about recorded Adenosine A3 receptor ECR* values, which is higher, P or Q ? Give the label under which the chosen entry appears.
A: P

----------
measured_target: human adenosine A1 receptor (Homo sapiens)
Construct: expressed in transfected cells; host or cells: Chinese hamster ovary (CHO) cells with CRE/SPAP/HYG reporter elements
test_details: Reporter gene assay (CRE/SPAP) in CHO cells, agonist potency relative to NECA, adenosine A1 receptor
Type: cell-based
Parameters: key: equipotent concentration ratio, NECA = 1
assay_conditions: ECR = equipotent concentration ratio relative to NECA = 1, inhibition of forskolin-stimulated SPAP production
measured_endpoint: Adenosine A1 receptor ECR*

Examples with their reported Adenosine A1 receptor ECR* follow.
- smiles_structure: "O[C@@H]1[C@H](O)[C@@H](c2nnc(C(F)(F)F)o2)O[C@H]1n1cnc2c(N[C@H]3CCC[C@@H]3O)ncnc21"
  measured_target: "human adenosine A1 receptor (Homo sapiens)"
  reading: 12.6
- smiles_structure: "CC(C)(C)c1nnc([C@H]2O[C@@H](n3cnc4c(NC5CCOCC5)ncnc43)[C@H](O)[C@@H]2O)[nH]1"
  measured_target: "human adenosine A1 receptor (Homo sapiens)"
  reading: 10.64
- smiles_structure: "CCc1cc([C@H]2O[C@@H](n3cnc4c(NC5CCOCC5)ncnc43)[C@H](O)[C@@H]2O)on1"
  measured_target: "human adenosine A1 receptor (Homo sapiens)"
  reading: 0.48
- smiles_structure: "O[C@@H]1[C@H](O)[C@@H](c2nnc(C(F)(F)F)o2)O[C@H]1n1cnc2c(NC3CCCC3)ncnc21"
  measured_target: "human adenosine A1 receptor (Homo sapiens)"
  reading: 7.42
- smiles_structure: "CCc1cnc([C@H]2O[C@@H](n3cnc4c(NC5CCOCC5)ncnc43)[C@H](O)[C@@H]2O)o1"
  measured_target: "human adenosine A1 receptor (Homo sapiens)"
  reading: 9.6
- smiles_structure: "CNS(=O)(=O)CCNc1ncnc2c1ncn2[C@@H]1O[C@H](c2ncc(C)o2)[C@@H](O)[C@H]1O"
  measured_target: "human adenosine A1 receptor (Homo sapiens)"
  reading: 0.21

I: CCc1cc([C@H]2O[C@@H](n3cnc4c(N[C@H]5CCC[C@@H]5O)ncnc43)[C@H](O)[C@@H]2O)on1
II: CC(C)c1noc([C@H]2O[C@@H](n3cnc4c(Nc5ccc(F)c(F)c5)ncnc43)[C@H](O)[C@@H]2O)n1
Q: Thinking about recorded Adenosine A1 receptor ECR* values, which is higher, I or II ? Give the label under which the chosen entry appears.
A: II
(II: 15.96, I: 1.95)

A: CC(C)(C)c1cc([C@H]2O[C@@H](n3cnc4c(NC5CCS(=O)(=O)CC5)ncnc43)[C@H](O)[C@@H]2O)on1
B: CC(C)(C)c1cc([C@H]2O[C@@H](n3cnc4c(NC5CCOCC5)ncnc43)[C@H](O)[C@@H]2O)on1
Q: Thinking about recorded Adenosine A1 receptor ECR* values, which is higher, A or B ? Give the label under which the chosen entry appears.
A: A
(A: 2.83, B: 0.42)

P: CCOC(=O)N1CCC(Nc2ncnc3c2ncn3[C@@H]2O[C@H](c3nc(C)no3)[C@@H](O)[C@H]2O)CC1
Q: CC(C)(C)c1noc([C@H]2O[C@@H](n3cnc4c(NCC5CC5)ncnc43)[C@H](O)[C@@H]2O)n1
Q: Field: lower recorded Adenosine A1 receptor ECR* (choose P or Q ) Give the label under which the chosen entry appears.
A: P
(P: 4.19, Q: 7.68)

I: CC(C)(C)c1nnc([C@H]2O[C@@H](n3cnc4c(NC5CCOCC5)ncnc43)[C@H](O)[C@@H]2O)o1
II: Cc1cnc([C@H]2O[C@@H](n3cnc4c(Nc5ccc(F)cc5Cl)nc(Cl)nc43)[C@H](O)[C@@H]2O)o1
Q: Field: lower recorded Adenosine A1 receptor ECR* (choose I or II ) Give the label under which the chosen entry appears.
A: I

----------
measured_target: human adenosine A1 receptor (Homo sapiens)
Construct: expressed in transfected cells; host or cells: Chinese hamster ovary (CHO) cells with CRE/SPAP/HYG reporter elements
Sequence (P30542 1-326): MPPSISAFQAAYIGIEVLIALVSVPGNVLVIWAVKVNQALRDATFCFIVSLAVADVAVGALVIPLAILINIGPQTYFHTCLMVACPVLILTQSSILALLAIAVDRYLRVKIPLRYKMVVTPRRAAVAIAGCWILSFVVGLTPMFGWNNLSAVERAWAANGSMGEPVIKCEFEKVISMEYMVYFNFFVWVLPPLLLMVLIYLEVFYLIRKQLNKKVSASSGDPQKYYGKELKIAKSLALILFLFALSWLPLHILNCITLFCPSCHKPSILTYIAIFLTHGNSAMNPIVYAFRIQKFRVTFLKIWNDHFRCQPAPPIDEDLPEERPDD
test_details: Reporter gene assay (CRE/SPAP) in CHO cells, agonist potency relative to NECA, adenosine A1 receptor
Assay type: cell-based
Design: key: equipotent concentration ratio, NECA = 1
assay_conditions: ECR = equipotent concentration ratio relative to NECA = 1, inhibition of forskolin-stimulated SPAP production
measured_endpoint: Adenosine A1 receptor ECR*

- compound: "O[C@@H]1[C@H](O)[C@@H](c2nc(C3CC3)no2)O[C@H]1n1cnc2c(Nc3ccc(Cl)cc3F)ncnc21 [Example 62]"
  reading: 29.47
- compound: "COCc1noc([C@H]2O[C@@H](n3cnc4c(NC5CCCC5)ncnc43)[C@H](O)[C@@H]2O)n1 [Example 129]"
  reading: 15.5
- compound: "CC(C)(C)c1nnc([C@H]2O[C@@H](n3cnc4c(Nc5ccc(F)cc5Cl)ncnc43)[C@H](O)[C@@H]2O)o1 [Example 116]"
  reading: 27.26
- compound: "O[C@@H]1[C@H](O)[C@@H](c2cc(Br)no2)O[C@H]1n1cnc2c(Nc3ccc(Cl)cc3F)ncnc21 [Example 164]"
  reading: 4.3
- compound: "CC(C)c1nnc([C@H]2O[C@@H](n3cnc4c(NC5CCOCC5)ncnc43)[C@H](O)[C@@H]2O)o1 [Example 6]"
  reading: 1.71
- compound: "CCc1cc([C@H]2O[C@@H](n3cnc4c(NC(CC)CC)nc(Cl)nc43)[C@H](O)[C@@H]2O)no1.O=CO [Example 163]"
  reading: 1.34
- compound: "CCNS(=O)(=O)CCNc1ncnc2c1ncn2[C@@H]1O[C@H](c2cc(C(C)(C)C)no2)[C@@H](O)[C@H]1O [Example 177]"
  reading: 2.01
- compound: "Cc1nnc([C@H]2O[C@@H](n3cnc4c(Nc5ccc(Cl)cc5F)ncnc43)[C@H](O)[C@@H]2O)o1 [Example 181]"
  reading: 8.57

1: CC(C)c1nnc([C@H]2O[C@@H](n3cnc4c(NC5CCOCC5)ncnc43)[C@H](O)[C@@H]2O)[nH]1 [Example 141]
2: O[C@@H]1[C@H](O)[C@@H](c2nnc(C3CC3)o2)O[C@H]1n1cnc2c(NC3CCOCC3)ncnc21 [Example 108]
Q: Field: lower recorded Adenosine A1 receptor ECR* (choose 1 or 2 ) Give the label under which the chosen entry appears.
A: 2
